Catalogue of sequences with associated log2 fold change of degron read counts
Molecular target: T1, CRBN, Q96SW2;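 note: pooled lentiviral library of zinc finger degron-EGFP fusions in mCherry-positive Jurkat cells, FACS-sorted after compound exposure, with degron abundance counted by next-generation sequencing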
T1 chain: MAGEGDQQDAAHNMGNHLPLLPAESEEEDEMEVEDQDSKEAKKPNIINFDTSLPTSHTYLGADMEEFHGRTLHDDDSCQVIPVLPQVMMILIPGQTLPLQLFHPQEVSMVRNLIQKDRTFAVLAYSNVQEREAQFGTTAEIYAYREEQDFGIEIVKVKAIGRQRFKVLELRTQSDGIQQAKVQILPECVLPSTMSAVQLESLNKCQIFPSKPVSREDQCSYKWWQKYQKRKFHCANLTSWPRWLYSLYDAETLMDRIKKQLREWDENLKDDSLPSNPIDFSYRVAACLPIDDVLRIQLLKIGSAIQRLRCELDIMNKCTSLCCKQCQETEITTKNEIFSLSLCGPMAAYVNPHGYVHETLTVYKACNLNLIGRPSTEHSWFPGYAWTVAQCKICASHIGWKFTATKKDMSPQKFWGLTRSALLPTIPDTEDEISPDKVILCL
Assay: log2 fold change of degron read counts, EGFP-low vs EGFP+ sorted cells (limma voom), compound-induced degradation; higher = more compound-induced degradation of the degron-EGFP fusion; degrons are variants of IKZF1/3 zinc finger 2; compound dose not given here
Details: Jurkat; 18 h; compound: compound 19 (5-tert-butyl-thalidomide)
Whole data set: some 8,300 sequences, median “log2 fold change of degron read counts, EGFP-low vs EGFP+ sorted cells (limma voom), compound-induced degradation” near -1.1, cut for the highest 2% near 3.2. This excerpt belongs to a sample that is enriched for the highest values.

input.sequence: LYCEICGFKCTQKGNLLRHIKL [46L_47Y_49E_50I_52G_53F_54K_55C_67L_, Q9UKT9]
endpoint: log2 fold change of degron read counts
measurement: 3.6
--
input.sequence: LDCNQCGFCCTQKGNLLRHIKL [46L_47D_49N_50Q_52G_53F_54C_55C_67L_, Q9UKT9]
endpoint: log2 fold change of degron read counts
measurement: -2.36

Request: What value of log2 fold change of degron read counts has been reported for the following sequence? FYCNVCGAEFTQKGNLLRHIKL [46F_47Y_49N_50V_52G_53A_54E_55F_67L_, Q9UKT9]
Response: 0.141

Request: // query log2 fold change of degron read counts value for entry LHCEICGFHCTQKGNLLRHIKL [46L_47H_49E_50I_52G_53F_54H_55C_67L_, Q9UKT9]
Response: 1.32
